- Protocol Description: RP, Thermo Scientific Acclaim RSLC 120 C18, 100 × 2.1 mm, 2.2 µm, 30 °C, 0.2 mL/min, estimated dead time 1.1 min; A: 90% water + 10% methanol + 0.01% formic acid + 5 mM ammonium formate, pH 3.61; B: methanol + 0.01% formic acid + 5 mM ammonium formate, pH 3.61; gradient (min/%B) 0/1 1/1 2/39 13/99.9 15/99.9 15.1/1 20.1/1
- Assay Context: stereoisomer not certain
The entries below come with measured LC retention time values attached.
Enter your answer as a number in min; do not include the unit.

# example entries with known answers
Molecule	Test Result
COC(=O)C1C(O)CC2CCC1N2C (stereo not given) [EME (Ecgonine methyl ester)]	1.38
COc1cc(CC(C)N)c(OC)cc1C (stereo not given) [DOM (2.5-Dimethoxy-4-methylamphetamine)]	5.83
CN1CCN(CC(=O)N2c3ccccc3C(=O)Nc3cccnc32)CC1 [Pirenzepine]	4.11
CCCNC(C)C(=O)Nc1c(C)csc1C(=O)OC (stereo not given) [Carticaine (Articaine)]	4.69

Moving on to the next molecule.
Query :: Given the entry CCNc1nc(NC(C)C)nc(OC)n1 [Atraton] , report its measured LC retention time.
Result :: 7.81

----------
The entries below come with measured LC retention time values attached.
- Protocol Description: RP, Thermo Scientific Acclaim RSLC 120 C18, 100 × 2.1 mm, 2.2 µm, 30 °C, 0.2 mL/min, estimated dead time 1.1 min; A: 90% water + 10% methanol + 0.01% formic acid + 5 mM ammonium formate, pH 3.61; B: methanol + 0.01% formic acid + 5 mM ammonium formate, pH 3.61; gradient (min/%B) 0/1 1/1 2/39 13/99.9 15/99.9 15.1/1 20.1/1
- Assay Context: stereoisomer not certain
Enter your answer as a number in min; do not include the unit.

# example entries with known answers
Compound	Reported Endpoint	Test Result
Fc1ccc(C2(Cn3cncn3)OC2c2ccccc2Cl)cc1 (stereo not drawn)	LC retention time	10.3
CN1CCCN=C1COC(=O)C(O)(c1ccccc1)C1CCCCC1 (stereo not drawn)	LC retention time	7.98
CN1C(=O)C(O)N=C(c2ccccc2)c2cc(Cl)ccc21 (stereo not drawn)	LC retention time	7.94
COc1ccc2c(c1)c(CC(=O)OCC(=O)O)c(C)n2C(=O)c1ccc(Cl)cc1	LC retention time	9.9

Query :: Given the entry CN(C)CCN1C(=O)c2ccccc2Nc2cc(Cl)ccc21 , report its measured LC retention time.
Result :: 6.32

Query :: Given the entry CCCc1nn(C)c2c(=S)nc(-c3cc(C(=S)N4CCN(C)CC4)ccc3OCC)[nH]c12 , report its measured LC retention time.
Result :: 11.5

Query :: Given the entry CC(=O)NCC1CN(c2ccc(N3CCOCC3)c(F)c2)C(=O)O1 (stereo not drawn) , report its measured LC retention time.
Result :: 5.56

Query :: Given the entry COC(=O)NS(=O)(=O)c1ccc(N)cc1 , report its measured LC retention time.
Result :: 3.41

----------
- Protocol Description: RP, Thermo Scientific Acclaim RSLC 120 C18, 100 × 2.1 mm, 2.2 µm, 30 °C, 0.2 mL/min, estimated dead time 1.1 min; A: 90% water + 10% methanol + 0.01% formic acid + 5 mM ammonium formate, pH 3.61; B: methanol + 0.01% formic acid + 5 mM ammonium formate, pH 3.61; gradient (min/%B) 0/1 1/1 2/39 13/99.9 15/99.9 15.1/1 20.1/1
- Assay Context: stereoisomer not certain
The entries below come with measured LC retention time values attached.
Enter your answer as a number in min; do not include the unit.

Compound	Test Result
CC(C)C(C(=O)OC(C#N)c1cccc(Oc2ccccc2)c1)c1ccc(OC(F)F)cc1 (centres undefined) [Flucythrinate]	12.7

Query :: Given the entry CCC(=O)C1C(=O)CC(C(=O)O)CC1=O (centres undefined) [Prohexadione] , report its measured LC retention time.
Result :: 5.63

Query :: Given the entry CC(C)CN(CC(O)C(Cc1ccccc1)NC(=O)OC1COC2OCCC12)S(=O)(=O)c1ccc(N)cc1 (centres undefined) [Darunavir] , report its measured LC retention time.
Result :: 8.21
